# System under test: hALDH2 (recombinant human mitochondria ALDH) (Homo sapiens, UniProt P05091)
# Sequence (P05091 18-517): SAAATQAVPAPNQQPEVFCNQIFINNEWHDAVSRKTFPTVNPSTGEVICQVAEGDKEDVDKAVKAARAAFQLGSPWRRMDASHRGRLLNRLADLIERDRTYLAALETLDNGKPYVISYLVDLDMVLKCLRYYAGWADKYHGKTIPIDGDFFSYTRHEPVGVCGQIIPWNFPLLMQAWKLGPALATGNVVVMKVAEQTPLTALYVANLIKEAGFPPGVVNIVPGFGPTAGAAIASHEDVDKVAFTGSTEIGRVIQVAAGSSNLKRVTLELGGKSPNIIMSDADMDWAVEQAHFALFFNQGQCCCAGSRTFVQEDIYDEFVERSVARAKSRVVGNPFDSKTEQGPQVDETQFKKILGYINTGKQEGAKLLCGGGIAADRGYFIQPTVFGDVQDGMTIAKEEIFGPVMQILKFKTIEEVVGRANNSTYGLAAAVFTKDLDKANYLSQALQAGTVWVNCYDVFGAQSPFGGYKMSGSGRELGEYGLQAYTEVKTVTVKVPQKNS
# Protocol description: ALDH2 inhibition assay
Assay readout: log10(IC50) (log10 of the value in nM)
Units before log transform: nM; reported quantity: IC50; transform: log10.

Field: example entries. Status: answers known.
CC(Oc1ccc2c(=O)c(-c3ccc(O)cc3)coc2c1)c1noc(-c2cc(F)cc(C(F)(F)F)c2)n1 (stereo not drawn); 1.68
O=c1c(-c2ccc(O)cc2)coc2cc(OCCc3n[nH]cc3-c3ccc(Cl)cc3)ccc12; 2.04

The measured log10(IC50) associated with `O=c1c(-c2ccc(O)cc2)coc2cc(OCCCc3n[nH]cc3-c3ccc(Cl)cc3)ccc12` reads 2.04

Form field log10(IC50), entry `CC(C)OC(=O)c1cccc(COc2ccc3c(=O)c(-c4ccc(O)cc4)coc3c2)c1` : 1.30

The reported value for `O=c1c(-c2ccc(O)cc2)coc2cc(OCCc3nnc(-c4ccc(F)cc4)o3)ccc12` in terms of log10(IC50) is 0.70

# log10(IC50) (molecule: `O=c1c(-c2ccc(O)cc2)coc2cc(OCCc3cccc(C(F)(F)F)c3)ccc12` ) is 2.83
